Assign growth to each entry below.
Test system: SK-OV-3 ovarian
assay: NCI-60 one-dose screen, 48 h (100 = growth as untreated, 0 = no growth, -100 = all killed)
condition: 10 µM unless noted
Compounds without any hit were thinned out: in the full panel of roughly 83,000, 20% have a hit. The source made the active and inactive calls. The calls were made as follows: active = growth percent below 10; inactive = the rest.

Use these answered entries as a reference point.
>  <compound>
CCCCN(CCCC)CCCn1c(-c2ccccc2)ccc1-c1ccccc1

>  <target-or-test-system>
SK-OV-3 ovarian

>  <reported-metric>
growth

>  <result>
81.3% (inactive)

$$$$
>  <compound>
Cc1cc(C)nc(SC2=C(Nc3cccc(Cl)c3)C(=O)N(Cc3ccccc3)C2=O)n1

>  <target-or-test-system>
SK-OV-3 ovarian

>  <reported-metric>
growth

>  <result>
113% [30 µM] (inactive)

$$$$
>  <compound>
CC1(C)CC[C@]2(C(=O)Nc3ccccn3)CC[C@]3(C)C(=CC[C@@H]4[C@@]5(C)C/C(=C/c6cccnc6)C(=O)C(C)(C)[C@@H]5CC[C@]43C)[C@H]2C1

>  <target-or-test-system>
SK-OV-3 ovarian

>  <reported-metric>
growth

>  <result>
74% (inactive)

$$$$

Consider the record given below.
Exercise: # returns recorded growth (system: SK-OV-3 ovarian) for `CSc1nc(NCc2ccccc2)c(C#N)c(-c2cccc([N+](=O)[O-])c2)n1`
Solution: 97.1% (inactive)
